Entries and their measured Anti-CD28 Fab signal in the presence of CD28 follow.
- study-target: Anti-CD28 Fab (SEQ ID NOs: 202, 203)
- Sequence (VH, as listed by the source, chain 1 of 2): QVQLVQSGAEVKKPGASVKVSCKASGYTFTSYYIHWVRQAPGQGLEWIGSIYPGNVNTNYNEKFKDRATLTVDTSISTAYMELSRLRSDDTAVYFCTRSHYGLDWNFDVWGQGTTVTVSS
- Sequence (VL, as listed by the source, chain 2 of 2): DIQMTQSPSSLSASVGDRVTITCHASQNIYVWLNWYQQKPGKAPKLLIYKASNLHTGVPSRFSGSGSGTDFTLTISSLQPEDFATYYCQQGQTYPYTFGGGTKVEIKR
- assay-summary: phage binding ELISA on captured Fab, competitor CD28 antigen;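 note: clonal phage supernatant binding in wells preincubated with CD28 antigen in blocking buffer, detected by HRP-conjugated anti-M13 antibody ELISA, compared with blocking buffer alone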
measured-quantity: Anti-CD28 Fab signal in the presence of CD28

>  <binder>
YCDGHIPQYVEKCL [Phage-788]

>  <test-result>
0.08

$$$$
>  <binder>
YCAGHLDVYMSKCL [Phage-781]

>  <test-result>
0.09

$$$$
>  <binder>
YCQGHSELYMSKCL [Phage-858]

>  <test-result>
0.08

$$$$
>  <binder>
YCEGHVPQYMGKCL [Phage-869]

>  <test-result>
0.08

$$$$
>  <binder>
YCDGHLPEYMEKCL [Phage-880]

>  <test-result>
0.07

$$$$
>  <binder>
YCEGHMSEYMRKCL [Phage-841]

>  <test-result>
0.1

$$$$
>  <binder>
YCEGHSVEYILKCL [Phage-757]

>  <test-result>
0.06

$$$$
>  <binder>
YCDGHTWMYKQKCL [Phage-886]

>  <test-result>
0.08

$$$$
